# test: MRT (0 to infinity) in Sprague-Dawley rat at 10 mg/kg, po by LC-MS/MS analysis
# Type: ADME, organism-based
# condition-details: in vivo
readout: MRT inf (h)
All answers are understood in h, so give the number only.

# input Name the recorded MRT inf of the molecule listed here: `[2H]C([2H])([2H])N(Cc1ccc(-c2ccc(OC(F)(F)F)cc2)cc1)[C@H](C)[C@](O)(Cn1cncn1)c1ccc(F)cc1F`
# output 6.18

* * *

# Test system: Nakaseomyces glabratus
# test: Antifungal activity against Clinical isolate Candida glabrata assessed as inhibition of visible growth
# Assay type: functional
Reported MIC80 values for the following compounds.
All answers are understood in µg/mL, so give the number only.

// known answers, use as guide
CN(Cc1nc(-c2ccc(OC(F)(F)F)cc2)cs1)CC(O)(Cn1cncn1)c1ccc(F)cc1F (centres undefined) = 0.4
[2H]C([2H])([2H])N(Cc1ccc(-c2ccc(C(F)(F)F)cc2)cc1)[C@H](C)[C@](O)(Cn1cncn1)c1ccc(F)cc1F = 0.012
CN(Cc1ccc(N2CCN(Cc3ccc(F)cc3Br)CC2)cc1)CC(O)(Cn1cncn1)c1ccc(F)cc1F (centres undefined) = 0.05
CN(Cc1ccc(-c2ccc(C(F)(F)F)cc2)cn1)CC(O)(Cn1cncn1)c1ccc(F)cc1F (centres undefined) = 0.05

# input Name the recorded MIC80 of the compound listed here: CN(Cc1ccc(-c2ccc(Cl)cc2)s1)CC(O)(Cn1cncn1)c1ccc(F)cc1F (centres undefined)
# output 0.2

# input Name the recorded MIC80 of the compound listed here: `[2H]C([2H])([2H])N(Cc1ccc(-c2ccc(Cl)cc2)cn1)[C@H](C)[C@](O)(Cn1cncn1)c1ccc(F)cc1F`
# output 0.025

# input Name the recorded MIC80 of the compound listed here: CN(Cc1cnc(-c2ccc(C(F)(F)F)cc2)s1)CC(O)(Cn1cncn1)c1ccc(F)cc1F (centres undefined)
# output 0.2

# input Name the recorded MIC80 of the compound listed here: Cc1ccc(-c2ccc(CN(C)CC(O)(Cn3cncn3)c3ccc(F)cc3F)nc2)cc1 (centres undefined)
# output 1.6

# input Name the recorded MIC80 of the compound listed here: CCc1ccc(-c2ccc(CN(C)CC(O)(Cn3cncn3)c3ccc(F)cc3F)nc2)cc1 (centres undefined)
# output 0.1

# input Name the recorded MIC80 of the compound listed here: CC(C)c1ccc(-c2ccc(CN(C)CC(O)(Cn3cncn3)c3ccc(F)cc3F)nc2)cc1 (centres undefined)
# output 0.2

# input Name the recorded MIC80 of the compound listed here: CN(Cc1ccc(-c2cccc(F)c2)cn1)CC(O)(Cn1cncn1)c1ccc(F)cc1F (centres undefined)
# output 0.8

# input Name the recorded MIC80 of the compound listed here: CN(Cc1ccc(-c2ccccc2F)cn1)CC(O)(Cn1cncn1)c1ccc(F)cc1F (centres undefined)
# output 0.8
